From: PubChem BioAssay (NCATS)

# ASSAY METHOD TEXT: Quantitative High-Throughput drug screen in 47 multiple myeloma cell lines against the NCATS MIPE library collection: JIM3_ECACC cell viability assay (AID 1918963; further: nearly all actives have a fitted effect of over 35% in size; further: potency means the concentration at half of the fitted maximal effect)
# REPORTED CONDITIONS: JIM3 myeloma viability, CellTiter-Glo ATP, 48 h; series mostly up to 45.8 µM
# From the text: PI: Beverly A. Mock Ph.D. Laboratory of Cancer Biology and Genetics, Center for Cancer Research, National Cancer Institute, National Institute of Health, Bethesda, Maryland […] 5; Detector; 425V; Luminescence; Viewlux PerkinElmer. […] 1. […] Briefly, the corresponding myeloma cell lines were screened in 1,536-well plates with 500 cells, 5-uL per well for inhibition of cell viability (assessed by measuring ATP levels with CellTiterGlo). […]
Inconclusive results are not listed. Active and inactive are the calls of the source. The call rests on the fitted dose curve; in most records, active means well fitted cell-killing curve with a large enough effect; inconclusive means small, poorly fitted or top-dose-only effect; inactive means no such curve, though single readings can be large or run the other way.
REPORTED METRIC: Potency

For orientation, consider the following solved cases.
{"COMPOUND": "CC1(C)S[C@H]2[C@H](NC(=O)[C@@H](N)c3ccc(O)cc3)C(=O)N2[C@@H]1C(=O)O", "Potency": "inactive"}
{"COMPOUND": "CNC1CCC(N(Cc2cccc(-c3ccncc3)c2)C(=O)c2sc3c(F)ccc(F)c3c2Cl)CC1 (stereo not drawn)", "Potency": "16.6 µM (active)"}
{"COMPOUND": "Cc1cnc(C(=O)O)c[n+]1[O-]", "Potency": "inactive"}
{"COMPOUND": "CC(C)OC(=O)C(C)(C)Oc1ccc(C(=O)c2ccc(Cl)cc2)cc1", "Potency": "inactive"}
{"COMPOUND": "CC(C)(C)COc1ccc(-n2cc(C(=O)O)cn2)cc1C#N", "Potency": "inactive"}

Req: Tell me Potency reported for CC(=O)O[C@]1(C(C)=O)CC[C@@H]2[C@@H]3C[C@H](C)C4=CC(=O)CC[C@]4(C)[C@H]3CC[C@@]21C
Resp: inactive

Req: Please indicate Potency recorded for O=C(CCc1ccc(O)cc1)c1c(O)cc(O)cc1O[C@@H]1O[C@H](CO)[C@H](O)[C@H](O)[C@H]1O
Resp: inactive

Req: Tell me Potency reported for O=c1cc(-c2ccccc2)oc2cc(O)cc(O)c12
Resp: 16.6 µM (active)
